Would you kindly list IC50 for each of these compounds?
# experimental-system: KRAS G12S (Homo sapiens (Human), UniProt P01116+P62937, G12S)
# Sequence (P01116-2 other isoform, or with tags, fused parts or gaps G12S, one chain of several): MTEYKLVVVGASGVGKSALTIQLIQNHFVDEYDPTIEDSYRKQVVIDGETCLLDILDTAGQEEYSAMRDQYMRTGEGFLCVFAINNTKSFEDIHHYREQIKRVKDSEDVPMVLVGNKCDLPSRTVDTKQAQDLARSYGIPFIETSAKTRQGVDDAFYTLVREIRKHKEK
# test-details: Ras-Raf (BRAF RBD) disruption / FRET / MOA assay, KRAS G12S
# Assay type: biochemical
# experimental-conditions: Ras-Raf disruption/FRET/MOA assay; class symbols; read-out: KRAS G12S FRET data IC50

input: Please give measured IC50 of the following entry: CCn1c(-c2cccnc2[C@H](C)OC)c2c3cc(ccc31)-c1cc(F)cc(c1)C[C@H](NC(=O)[C@@H](COC1CN(C(=O)C#CC(C)(C)N(C)C)C1)C(C)C)C(=O)N1CCC[C@H](N1)C(=O)OCC(C)(C)C2 (atropisomer, axis not shown)
output: > 10 µM

input: Give IC50 for CCn1c(-c2cccnc2[C@H](C)OC)c2c3cc(ccc31)N1CCO[C@@H](C[C@H](NC(=O)[C@@H](COC3CN(C(=O)C#CC(C)(C)N(C)C)C3)C(C)C)C(=O)N3CCC[C@H](N3)C(=O)OCC(C)(C)C2)C1 (atropisomer, axis not shown)
output: > 10 µM

* * *

Could you please report measured pIC50 for the items listed next?
# experimental-system: KRAS Q61H (Homo sapiens (Human), UniProt P01116+P62937, Q61H)
# Sequence (P01116-2 other isoform, or with tags, fused parts or gaps Q61H): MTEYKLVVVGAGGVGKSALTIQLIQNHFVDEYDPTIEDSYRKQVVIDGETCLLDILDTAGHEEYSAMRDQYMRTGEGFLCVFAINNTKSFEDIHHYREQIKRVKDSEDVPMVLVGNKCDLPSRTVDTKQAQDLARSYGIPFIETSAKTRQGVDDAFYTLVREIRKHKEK
# Sequence (P62937 whole entry): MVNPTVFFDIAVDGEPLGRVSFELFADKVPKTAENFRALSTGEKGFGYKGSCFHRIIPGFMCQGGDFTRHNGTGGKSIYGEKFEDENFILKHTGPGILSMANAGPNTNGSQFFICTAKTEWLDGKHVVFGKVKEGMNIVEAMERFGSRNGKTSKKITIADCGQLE
# test-details: Ras-Raf (BRAF RBD) disruption / FRET / MOA assay, KRAS Q61H
# Type: biochemical
# experimental-conditions: Ras-Raf disruption/FRET/MOA assay; class symbols; read-out: KRAS Q61H FRET data IC50
pIC50: −log10 of the molar value.

input: # return recorded pIC50 for entry C=CC(=O)N1CC[C@@]2(COCCN2C(=O)N(C)[C@H](C(=O)N[C@H]2Cc3nc(cs3)-c3ccc4c(c3)c(c(-c3cccnc3[C@H](C)OC)n4CC)CC(C)(C)COC(=O)[C@@H]3CCCN(N3)C2=O)C(C)C)C1 (atropisomer, axis not shown)
output: 6.00 to 7.00

input: Provide one value: measured pIC50 of C=CC(=O)N1CCO[C@H]2CN(C(=O)N(C)[C@H](C(=O)N[C@H]3Cc4cccc(n4)-c4ccc5c(c4)c(c(-c4cccnc4[C@H](C)OC)n5CC(F)(F)F)CC(C)(C)COC(=O)[C@@H]4CCCN(N4)C3=O)C(C)C)C[C@H]21 (atropisomer, axis not shown)
output: 6.00 to 7.00

* * *

For each record, write down the corresponding pIC50.
# experimental-system: KRAS Q61H (Homo sapiens (Human), UniProt P01116+P62937, Q61H)
# test-details: Ras-Raf (BRAF RBD) disruption / FRET / MOA assay, KRAS Q61H
# Assay type: biochemical
# experimental-conditions: Ras-Raf disruption/FRET/MOA assay; class symbols; read-out: KRAS Q61H FRET data IC50
pIC50: −log10 of the molar value.

input: Assign pIC50 to the following record: CO[C@@H](C)c1ncccc1-c1c2c3cc(ccc3n1CC(F)(F)F)-c1cccc(c1)CN(NC(=O)[C@@H](COC1CN(C(=O)C#CC(C)(C)N(C)C)C1)C(C)C)C(=O)N1CCC[C@H](N1)C(=O)OCC(C)(C)C2 (atropisomer, axis not shown) [Example A601]
output: 5.00 to 6.00

input: Tell me measured pIC50 for C=CC(=O)N1CC[C@H](C(=O)N(C)[C@H](C(=O)N[C@H]2Cc3cc(O)cc(c3)-c3ccc4c(c3)c(c(-c3cncc5c3[C@@H](OC)CC5)n4CC)CC(C)(C)COC(=O)[C@@H]3CCCN(N3)C2=O)C(C)C)C1 [Example A275] please.
output: 7.00 to 8.00
